# measurement_protocol: Growth inhibition of human melanoma cell by NCI-CLS assay
# Format: functional
# assay_context: read-out: LC50 (the source's name)
measurement_label: CC50 (µM)
Provide the reading as a plain figure in µM.

Consider the worked cases shown below.
# given_smiles, measurement_label, experimental_result
data = [
    ("O=C1Nc2c(ccc3ccccc23)/C1=C\\c1cccc(/C=C2/C(=O)Nc3c2ccc2ccccc32)n1", "CC50", 77.6),
    ("Cc1[nH]c(C)c(/C=C2/C(=O)Nc3ccc(F)cc32)c1/C=C1/C(=O)Nc2ccc(F)cc21", "CC50", 52.5),
    ("COc1ccc(OC)c2c1NC(=O)/C2=C/c1cccc(/C=C2/C(=O)Nc3c(OC)ccc(OC)c32)n1", "CC50", 13.5),
    ("COc1cc2c(c(OC)c1OC)/C(=C\\c1cccc(/C=C3/C(=O)Nc4cc(OC)c(OC)c(OC)c43)n1)C(=O)N2", "CC50", 2.7),
    ("COc1ccc2c(c1)/C(=C\\c1cccc(/C=C3/C(=O)Nc4ccc(OC)cc43)c1)C(=O)N2", "CC50", 30.2),
]

Q. GET /values?readout=CC50&item= `O=Cc1cccc(/C=C2/C(=O)Nc3c2ccc2ccccc32)n1`
A. 72.4

Q. GET /values?readout=CC50&item= `O=C1Nc2cccc(I)c2/C1=C\c1cccc(/C=C2/C(=O)Nc3cccc(I)c32)n1`
A. 13.5

Q. GET /values?readout=CC50&item= `CC(C)(C)c1cc(/C=C2/C(=O)Nc3cccc(Cl)c32)c(O)c(/C=C2/C(=O)Nc3cccc(Cl)c32)c1`
A. 36.3

----------
# measurement_protocol: Growth inhibition of human ovarian cancer cell by NCI-CLS assay
# Format: functional
# assay_context: Cancer cell lines, read-out: LC50 (the source's name)
CC50 by entry:
Provide the reading as a plain figure in µM.

# given_smiles, measurement_unit, CC50
data = [
    ("Cc1[nH]c(C)c(/C=C2/C(=O)Nc3ccc(F)cc32)c1/C=C1/C(=O)Nc2ccc(F)cc21", "µM", 72.4),
]

Kindly review the next molecule as well.
Q. GET /values?readout=CC50&item= `COc1ccc2c(c1)/C(=C\c1cccc(/C=C3/C(=O)Nc4ccc(OC)cc43)c1)C(=O)N2`
A. 95.5

----------
# measurement_protocol: Growth inhibition of human breast cancer cell by NCI-CLS assay
# Format: functional
# assay_context: Cancer cell lines
GI50 by entry:
Provide the reading as a plain figure in nM.

Consider the worked cases shown below.
# given_smiles, measurement_unit, GI50
rows = [
    ("O=C1Nc2cccc(I)c2/C1=C\\c1cccc(/C=C2/C(=O)Nc3cccc(I)c32)n1", "nM", 800),
    ("COc1ccc2c(c1)/C(=C\\c1cc(OC)c(O)c(-c3cc(/C=C4/C(=O)Nc5ccc(OC)cc54)cc(OC)c3O)c1)C(=O)N2", "nM", 13800),
    ("COc1ccc2c(c1)/C(=C\\c1cccc(/C=C3/C(=O)Nc4ccc(OC)cc43)c1)C(=O)N2", "nM", 1200),
    ("Cc1[nH]c(C)c(/C=C2/C(=O)Nc3ccc(F)cc32)c1/C=C1/C(=O)Nc2ccc(F)cc21", "nM", 4900),
    ("COc1ccc(OC)c2c1NC(=O)/C2=C/c1cccc(/C=C2/C(=O)Nc3c(OC)ccc(OC)c32)n1", "nM", 700),
    ("O=C1Nc2cccc(Cl)c2/C1=C\\c1cccc(/C=C2/C(=O)Nc3cccc(Cl)c32)c1", "nM", 2400),
    ("O=C1Nc2cc(OC(F)(F)F)ccc2/C1=C\\c1cccc(/C=C2/C(=O)Nc3cc(OC(F)(F)F)ccc32)n1", "nM", 300),
]

Q. GET /values?readout=GI50&item= `O=C1Nc2cccc(Cl)c2/C1=C\c1ccc2ccc3ccc(/C=C4/C(=O)Nc5cccc(Cl)c54)nc3c2n1`
A. 14400

----------
# measurement_protocol: Acute toxicity in athymic nude Swiss mouse administered as single dose
# Assay type: organism-based
# assay_context: in vivo
measurement_label: MTD (mg/kg)
Provide the reading as a plain figure in mg/kg.

Q. GET /values?readout=MTD&item= `COc1cc2c(c(OC)c1OC)/C(=C\c1cccc(/C=C3/C(=O)Nc4cc(OC)c(OC)c(OC)c43)n1)C(=O)N2`
A. 100

----------
# measurement_protocol: Growth inhibition of human ovarian cancer cell by NCI-CLS assay
# Format: functional
# assay_context: Cancer cell lines
measurement_label: GI50 (nM)
Provide the reading as a plain figure in nM.

Consider the worked cases shown below.
# given_smiles, measurement_label, experimental_result
data = [
    ("COc1cc2c(c(OC)c1OC)/C(=C\\c1cccc(/C=C3/C(=O)Nc4cc(OC)c(OC)c(OC)c43)n1)C(=O)N2", "GI50", 300),
    ("O=Cc1cccc(/C=C2/C(=O)Nc3c2ccc2ccccc32)n1", "GI50", 8700),
    ("COc1ccc2c(c1)/C(=C\\c1cc(OC)c(O)c(-c3cc(/C=C4/C(=O)Nc5ccc(OC)cc54)cc(OC)c3O)c1)C(=O)N2", "GI50", 15100),
    ("O=C1Nc2cccc(I)c2/C1=C\\c1cccc(/C=C2/C(=O)Nc3cccc(I)c32)n1", "GI50", 1100),
    ("COc1ccc(OC)c2c1NC(=O)/C2=C/c1cccc(/C=C2/C(=O)Nc3c(OC)ccc(OC)c32)n1", "GI50", 800),
    ("O=C1Nc2c(ccc3ccccc23)/C1=C\\c1cccc(/C=C2/C(=O)Nc3c2ccc2ccccc32)n1", "GI50", 19000),
]

Q. GET /values?readout=GI50&item= `O=C1Nc2cccc(F)c2C1=Cc1cccc(C=C2C(=O)Nc3cccc(F)c32)n1`
A. 1600

Q. GET /values?readout=GI50&item= `COc1ccc2c(c1)/C(=C\c1cccc(/C=C3/C(=O)Nc4ccc(OC)cc43)c1)C(=O)N2`
A. 2100

----------
# measurement_protocol: Growth inhibition of human ovarian cancer cell by NCI-CLS assay
# Assay type: functional
# assay_context: Cancer cell lines
measurement_label: TGI (µM)
Provide the reading as a plain figure in µM.

Consider the worked cases shown below.
# given_smiles, TGI, µM
measured = [
    ("COc1ccc2c(c1)/C(=C\\c1ccc3ccc4ccc(/C=C5/C(=O)Nc6ccc(OC)cc65)nc4c3n1)C(=O)N2", 58.9),
    ("COc1ccc2c(c1)/C(=C\\c1cccc(/C=C3/C(=O)Nc4ccc(OC)cc43)c1)C(=O)N2", 6.3),
]

Q. GET /values?readout=TGI&item= `COc1ccc2c(c1)/C(=C\c1cc(C(C)(C)C)cc(/C=C3/C(=O)Nc4ccc(OC)cc43)c1O)C(=O)N2`
A. 25.1

Q. GET /values?readout=TGI&item= `O=C1Nc2cccc(I)c2/C1=C\c1cccc(/C=C2/C(=O)Nc3cccc(I)c32)n1`
A. 5.6

Q. GET /values?readout=TGI&item= `COc1ccc(OC)c2c1NC(=O)/C2=C/c1cccc(/C=C2/C(=O)Nc3c(OC)ccc(OC)c32)n1`
A. 11.2

Q. GET /values?readout=TGI&item= `O=C1Nc2cccc(F)c2C1=Cc1cccc(C=C2C(=O)Nc3cccc(F)c32)n1`
A. 8.5

Q. GET /values?readout=TGI&item= `O=C1Nc2c(ccc3ccccc23)/C1=C\c1cccc(/C=C2/C(=O)Nc3c2ccc2ccccc32)n1`
A. 56.2

Q. GET /values?readout=TGI&item= `O=C1Nc2cccc(Cl)c2/C1=C\c1cccc(/C=C2/C(=O)Nc3cccc(Cl)c32)c1`
A. 14.4

----------
# measurement_protocol: Growth inhibition of human CNS cancer cell by NCI-CLS assay
# Format: functional
# assay_context: Cancer cell lines
Where a name gives a salt, the structure may show the parent alone.
measurement_label: TGI (µM)
Provide the reading as a plain figure in µM.

Consider the worked cases shown below.
# molecule, measurement_unit, TGI
measured = [
    ("COc1ccc2c(c1)/C(=C\\c1cccc(/C=C3/C(=O)Nc4ccc(OC)cc43)c1)C(=O)N2", "µM", 4.3),
    ("CC[C@]1(O)C[C@H]2CN(CCc3c([nH]c4ccccc34)[C@@](C(=O)OC)(c3cc4c(cc3OC)N(C=O)[C@H]3[C@@](O)(C(=O)OC)[C@H](OC(C)=O)[C@]5(CC)C=CCN6CC[C@]43[C@@H]65)C2)C1 [VINCRISTINE SULFATE]", "µM", 6.3),
    ("O=C1Nc2cccc(F)c2C1=Cc1cccc(C=C2C(=O)Nc3cccc(F)c32)n1", "µM", 5.7),
]

Q. GET /values?readout=TGI&item= `COc1ccc2c(c1)/C(=C\c1cc(C(C)(C)C)cc(/C=C3/C(=O)Nc4ccc(OC)cc43)c1O)C(=O)N2`
A. 21.4

Q. GET /values?readout=TGI&item= `COc1ccc2c(c1)/C(=C\c1cc(OC)c(O)c(-c3cc(/C=C4/C(=O)Nc5ccc(OC)cc54)cc(OC)c3O)c1)C(=O)N2`
A. 87.1

Q. GET /values?readout=TGI&item= `COc1cc2c(c(OC)c1OC)/C(=C\c1cccc(/C=C3/C(=O)Nc4cc(OC)c(OC)c(OC)c43)n1)C(=O)N2`
A. 0.8

Q. GET /values?readout=TGI&item= `O=C1Nc2cccc(Cl)c2/C1=C\c1ccc2ccc3ccc(/C=C4/C(=O)Nc5cccc(Cl)c54)nc3c2n1`
A. 34.7

All values here come from ChEMBL document CHEMBL1157784.
